experiment: Mouse PK, combined (cassette) dosing of BGAz-001–005; format: in vivo, KM mice; conditions: male, KM, mouse, plasma; IP 1 mg/kg, cassette, mean of animals; read-out: MRT(0-∞)
measured_attribute: MRT inf (h)
Response body: numeric value in h, unit text excluded.

Example entries begin here.
compound: FC(F)(F)Oc1ccc(C2CC(CN3CCCC3)N2Cc2ccccc2OC(F)(F)F)cc1 (stereo not drawn)
observed_value: 23.7
//
compound: CNCC1CC(c2ccc(OC(F)(F)F)cc2)N1Cc1ccccc1OC(F)(F)F (stereo not drawn)
observed_value: 12.3

Attention now shifts to the item below.
Item under review: Brc1cc(Br)cc(C2CC(CN3CCCC3)N2Cc2ccccc2Br)c1 (stereo not drawn) . Reported MRT inf?
12.9

---

assay: Mouse PK, combined (cassette) dosing of BGAz-001–005; format: in vivo, KM mice; details: male, KM, mouse, plasma; PO 5 mg/kg, cassette, mean of animals; read-out: Vz/F
Measured Vd/F, listed per entry.
Numeric only. Scale: L/kg

compound: Brc1cc(Br)cc(C2CC(CN3CCCC3)N2Cc2ccccc2Br)c1 (stereo not drawn)
Vd/F [L/kg]: 58.1

compound: FC(F)(F)Oc1ccc(C2CC(CN3CCCC3)N2Cc2ccccc2OC(F)(F)F)cc1 (stereo not drawn)
Vd/F [L/kg]: 104

// lookup Vd/F for CNCC1CC(c2ccc(OC(F)(F)F)cc2)N1Cc1ccccc1OC(F)(F)F (stereo not drawn)
129

---

# maps each entry to its Cmax
assay: Mouse PK, combined (cassette) dosing of BGAz-001–005; assay type: in vivo, KM mice; conditions: male, KM, mouse, plasma, po, 5 mg/kg, PO 5 mg/kg, cassette, mean of animals; read-out: Cmax
Form entry: value (ng/mL) — number only.

Please review the entries below; each comes with its answer.
compound: Brc1cc(Br)cc(C2CC(CN3CCCC3)N2Cc2ccccc2Br)c1 (stereo not drawn)
Cmax [ng/mL]: 87.6
//
compound: CNCC1CC(c2ccc(OC(F)(F)F)cc2)N1Cc1ccccc1OC(F)(F)F (stereo not drawn)
Cmax [ng/mL]: 43.1

# input for lookup
Give its Cmax value. Item: FC(F)(F)Oc1ccc(C2CC(CN3CCCC3)N2Cc2ccccc2OC(F)(F)F)cc1 (stereo not drawn)
53.9

---

assay: Mouse PK, combined (cassette) dosing of BGAz-001–005; format: in vivo, KM mice; settings: male, KM, mouse, plasma; IV 1 mg/kg, cassette, mean of animals
Some compounds, each annotated with its measured C0.

compound: CNCC1CC(c2ccc(OC(F)(F)F)cc2)N1Cc1ccccc1OC(F)(F)F (stereo not drawn) [BGAz-005]
C0: 392 ng/mL
--
compound: Brc1cc(Br)cc(C2CC(CN3CCCC3)N2Cc2ccccc2Br)c1 (stereo not drawn) [BGAz-004]
C0: 327 ng/mL

Here is another compound to look at.
Give the measured C0 of FC(F)(F)Oc1ccc(C2CC(CN3CCCC3)N2Cc2ccccc2OC(F)(F)F)cc1 (stereo not drawn) [BGAz-002] .
222 ng/mL

---

experiment: Mouse PK, multiple oral dosing of single compounds; type: in vivo, KM mice; details: KM, mouse, plasma; multiple PO 30 mg/kg, times 3, mean of animals
measured_attribute: AUC (ng·h/mL)
// return numeric value only (unit: ng·h/mL, not printed)

Please look up its AUC: CNCC1CC(c2ccc(OC(F)(F)F)cc2)N1Cc1ccccc1OC(F)(F)F (stereo not shown)
16800

---

assay: Mouse PK, combined (cassette) dosing of BGAz-001–005; type: in vivo, KM mice; conditions: male, KM, mouse, plasma, ip, 1 mg/kg, IP 1 mg/kg, cassette, summary table; read-out: Tmax
Form field: Tmax (one value per entry).
Write the value in min as a bare number.

Guide cases for Tmax, answers given:
molecule: Brc1cc(Br)cc(C2CC(CN3CCCC3)N2Cc2ccccc2Br)c1 (stereo not drawn)
Tmax [min]: 16.3
--
molecule: FC(F)(F)Oc1ccc(C2CC(CN3CCCC3)N2Cc2ccccc2OC(F)(F)F)cc1 (stereo not drawn)
Tmax [min]: 10

API: the following record is the query input.
Consider the molecule shown here: CNCC1CC(c2ccc(OC(F)(F)F)cc2)N1Cc1ccccc1OC(F)(F)F (stereo not drawn) What is its recorded Tmax?
38.8

---

test: Mouse PK, combined (cassette) dosing of BGAz-001–005; assay type: in vivo, KM mice; details: male, KM, mouse, plasma; IV 1 mg/kg, cassette, mean of animals; read-out: MRT(0-t)
measured_attribute: MRT last (h)
Kindly answer with a numeric value in h, unit omitted.

Illustrative cases are given below, each with its answer.
compound: FC(F)(F)Oc1ccc(C2CC(CN3CCCC3)N2Cc2ccccc2OC(F)(F)F)cc1 (stereo not drawn) [BGAz-002]
measured_attribute: MRT last
value_units: h
observed_value: 6.46

compound: Brc1cc(Br)cc(C2CC(CN3CCCC3)N2Cc2ccccc2Br)c1 (stereo not drawn) [BGAz-004]
measured_attribute: MRT last
value_units: h
observed_value: 6.4

Using the record for CNCC1CC(c2ccc(OC(F)(F)F)cc2)N1Cc1ccccc1OC(F)(F)F (stereo not drawn) [BGAz-005] , report its MRT last.
5.5

---

Assay: Mouse PK, multiple oral dosing of single compounds
Assay type: in vivo, KM mice
Details: KM, mouse, plasma, oral, 30 mg/kg, mice; read-out: blood plasma half-life
From the text: Methods for combined single dosing (BGAz001–005) and dosing of single compounds multiple times (BGAz004 and BGAz005) are described in detail in the Supporting Information (PK Data). Report on PK results of BGAz-004 by multiple oral dosing 7 Materials and instrument combined dosing […]
measured_attribute: half-life

Give its half-life value. Item: CNCC1CC(c2ccc(OC(F)(F)F)cc2)N1Cc1ccccc1OC(F)(F)F (stereo not shown)
> 72 h

---

Test: Mouse PK, multiple oral dosing of single compounds
Assay type: in vivo, KM mice
Conditions: KM, mouse, plasma, po, 30 mg/kg, multiple daily dosing 4 × 30 mg/kg PO; read-out: AUC0-inf
Description: Methods for combined single dosing (BGAz001–005) and dosing of single compounds multiple times (BGAz004 and BGAz005) are described in detail in the Supporting Information (PK Data). Report on PK results of BGAz-004 by multiple oral dosing 7 Materials and instrument combined dosing […]
measured_attribute: AUC(0-inf) (ng·h/mL)
Your answer should be a plain number; it is taken to be in ng·h/mL.

Quick one: AUC(0-inf) for Brc1cc(Br)cc(C2CC(CN3CCCC3)N2Cc2ccccc2Br)c1 (stereo not shown) [BGAz-004] ?
5420

---

assay: Mouse PK, multiple oral dosing of single compounds; format: in vivo, KM mice; details: KM, mouse, plasma, po, 30 mg/kg, multiple PO 30 mg/kg, times 4, mean of animals; read-out: t1/2z (converted)
measured_attribute: half-life (h)
Unit h implied. Number only.

If you can, please state the reported half-life value of Brc1cc(Br)cc(C2CC(CN3CCCC3)N2Cc2ccccc2Br)c1 (stereo not shown) .
8.07

---

Assay: Mouse PK, multiple oral dosing of single compounds
Type: in vivo, KM mice
Conditions: KM, mouse, plasma; multiple PO 30 mg/kg, times 3, mean of animals
Text: Methods for combined single dosing (BGAz001–005) and dosing of single compounds multiple times (BGAz004 and BGAz005) are described in detail in the Supporting Information (PK Data). Report on PK results of BGAz-004 by multiple oral dosing 7 Materials and instrument combined dosing […]
measured_attribute: AUC(0-t) (ng·h/mL)
Please reply with the bare figure in ng·h/mL and do not write the unit itself.

Need AUC(0-t) of CNCC1CC(c2ccc(OC(F)(F)F)cc2)N1Cc1ccccc1OC(F)(F)F (stereo not shown) [BGAz-005] , thanks.
16800

---

Below, each of the compounds is paired with its reported AUC(0-t) value.
test: Mouse PK, combined (cassette) dosing of BGAz-001–005; type: in vivo, KM mice; conditions: male, KM, mouse, plasma; IP 1 mg/kg, cassette, mean of animals; read-out: AUC(0-t)
The figure you give is taken to be in ng·h/mL; do not add the unit.

compound: Brc1cc(Br)cc(C2CC(CN3CCCC3)N2Cc2ccccc2Br)c1 (centres unmarked) [BGAz-004]
value_units: ng·h/mL
AUC(0-t): 478

// query AUC(0-t) value for entry CNCC1CC(c2ccc(OC(F)(F)F)cc2)N1Cc1ccccc1OC(F)(F)F (centres unmarked) [BGAz-005]
388

---

experiment: Mouse microsomal clearance; assay type: in vitro ADME; conditions: 0.5 mg/mL mouse microsomes
measured_attribute: microsomal CLint at 1 μM (µL/min/mg)
Express it in µL/min/mg; write the number only.

Examples from the recorded data:
compound: FC(F)(F)Oc1ccc(C2CC(CN3CCCC3)N2Cc2ccccc2OC(F)(F)F)cc1 (stereo not drawn) [BGAz-002]
microsomal CLint at 1 μM [µL/min/mg]: 166

compound: Brc1cc(Br)cc(C2CC(CN3CCCC3)N2Cc2ccccc2Br)c1 (stereo not drawn) [BGAz-004]
microsomal CLint at 1 μM [µL/min/mg]: 192

We now examine a further compound.
GET /values?readout=microsomal CLint at 1 μM&item= CNCC1CC(c2ccc(OC(F)(F)F)cc2)N1Cc1ccccc1OC(F)(F)F (stereo not drawn) [BGAz-005]
36

Where do the numbers come from? From paper PMC10895678.
